target: human LSD1 (Homo sapiens, UniProt O60341); assay: LSD1 inhibition, mass spectrometry; format: biochemical
Observable: LSD1 inhibition in words

INSERT INTO measurements (given_smiles, target_entity, result) VALUES
  ('Cc1ccc(-c2ncc(O)cc2-c2ccc(C#N)cc2)cc1', 'human LSD1 (Homo sapiens, UniProt O60341)', 'Loss of activity'),
  ('c1ccc(-c2cc(OCC3CCNCC3)cnc2-c2ccccc2)cc1', 'human LSD1 (Homo sapiens, UniProt O60341)', 'inactive'),
  ('c1ccc(-c2ccc(OCC3CCNCC3)cn2)cc1', 'human LSD1 (Homo sapiens, UniProt O60341)', 'inactive'),
  ('Cc1ccc(-c2ncc(OCc3ccccc3)cc2-c2ccc(C#N)cc2)cc1', 'human LSD1 (Homo sapiens, UniProt O60341)', 'Loss of activity');
